assay: yeast display, Sf9 membrane polyspecificity reagent, FACS + sequencing; frameworks hold sequencing errors
testReadout: polyreactivity (PSR sort gate)

Here are 6 sequences together with their reported answers.
QVQLVESGGGLVQAGGSLRLSCAASGFIFYDYDMGWYRQSPGKERELVAAISSGGSTNYADSVKGRFTISRDNAKNTVYLQMNSLIPEDTAVYYCATDVGVERRQVDRYIYDYWGQGTQVTVSS :: low polyreactivity
QLQLVESGGGLVQAGARLRLSCAASGSIFRFNPMGWYIPAPGKERELVAAITSSGDSTYYADSVKGRFTISRDNAKYTVYLQMNCLKPEDTAVSDCAAVRNRFIGWTVRYNWARIYNYWGQGTQVTVSS :: high polyreactivity
QVQLVESGGGLVQAGGRHRLSCAASGSTLTRNTMGWYRQAPGIQRELVATITRSGGSTYYADSVKGRFTISRDNAKNTVYLQMNSLKPEDTAVYYCAVRRQTFRYVYPGMDYWGQGTQETVSS :: high polyreactivity
QVQLVESGGGLVQAGGSLRLSCAASGSIFGSNAMGWYRQAPGKERELVAAISYRGGSTYYADSVKGRFTISRDNAKNTVYLQMNSLKPEDTAFYYCAKVSSYKPYDYWGLGTQVTVSS :: low polyreactivity
QVQLVESGGGLVQAGGSLRLSCAASGRTFHYNVMGWYRQAPGKESELVAASTNTGGSTYYADSVKGRFTISRDNAKNTVYLQMNSLKPEDTAVYYCAAVIWGRRYGAYPYEYWGQGTQVTVSS :: low polyreactivity
QVQLVESGGGLVQAGGSLRLSCAASGSNFPSYAMGWYTKAPGEEMEFVARISRGDDSTYYADSVKGRFTISRDNAKNTVYLQMNSLKPEDTAVYYCAADYPDVVYLEYDYWGQGTQVTVSS :: low polyreactivity

Hi team, please reply with polyreactivity (PSR sort gate) for each item in this list.
1. QVQLQESGGGLVQAGGSLRLSCAASGTISQEDWKGWYRQAPGKEREFVAAIGLGSNTNYADSLKGRFTISRDNAKNTVYLQMNSLKQEDTAVYYCAVSVWQYSDHVYRGQGTQVTVSS
2. QVQLVESGGGLVQAGGSLRLSCAASGFIFYLNVMGWYRQAPGKERELVATITSGGSTNYADSVKGRFTISRDNAKNTVYLQMNSLKPEDTAVYYCAAEQVWYDWEYDYWGQGTQVTVSS
3. QVQLVESGGGLVQAGGSLRLTCAASGRTFTLNSMGWYRQAPGKERELVAAIRRGGSTYYADSVKGRFTISRDNAKNTVYLQMNSLKPVDTAVYYCAAYKGSYGGYRMQYSYNYWGQGTQVTVSS
4. QVQLVESWGGLVQAGGSLRISCAASGRTFPDYAMGWYRQAPGKERELVAAISSGGGTYYADSVKGRFTISRDNAKNTVFLQMNSLKPEDTAVYYCAATGVPGWVGFDYCGQGTQVTVSS
5. QVQLVESGGGLVQAGGSLRLSCAASGRTFSWYAMGWYRQAPGKERELVAAITRDGGNTYYADSVKGRFTISRDNAKNTVYLQMNSLKPEDTAVYYCAAAPTTGKRPGYYYWGQGTQVTVSS

Given back:
["low polyreactivity", "high polyreactivity", "high polyreactivity", "low polyreactivity", "high polyreactivity"]
